Data provenance is PubChem BioAssay (NCATS).

# Tested on: N140
# Run description: qHTS profiling for inhibitors of Plasmodium falciparum proliferation (AID 504749);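 further: 0% = DMSO vehicle and full inhibition = artemisinin control; nearly all actives have a fitted effect of over 60% in size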
# Assay context: P. falciparum in erythrocytes, SYBR Green DNA, 72 h; series mostly up to 28.7 µM
Results filed as inconclusive are left out. Active and inactive are the calls of the source. The call rests on the fitted dose curve; in most records, active means well fitted inhibition curve with a large enough effect; inconclusive means small, poorly fitted or top-dose-only effect; inactive means flat fitted curve, though single readings scatter.
Measure name: outcome

# example entries with known answers
Tell me its outcome on N140: COc1ccccc1N1CCN(CCCC(=O)c2ccc(F)cc2)CC1
inactive

Give outcome only, for O=C(O)COc1ccccc1/C=N/NC(=O)c1ccncc1 , using N140 data.
inactive

# return outcome for Oc1cc(O)cc(O)c1 , test system: N140
inactive

Report measured outcome on N140; entry: COC(=O)CCC[N+](C)(C)C
inactive

Write down measured outcome (N140) for this compound. CCOC(=O)c1cc(-c2ccccc2)nc2ccc(C)cc12
inactive

Quote N140 outcome for entry OCCCNc1ccccc1 .
inactive

Report outcome on N140 for this entry: CCCCCCCCCCCC(=O)OCC(O)CO (stereo not drawn)
inactive

Jot down outcome (N140) of CCOc1ccc(NC(=S)Nc2ccc(OCC)cc2)cc1 .
inactive

Continuing:
Report measured outcome on N140; entry: O=[N+]([O-])c1c(Cl)cccc1-c1c[nH]cc1Cl
inactive

Please respond with reported outcome (system N140) for c1ccc2c(c1)OCC(CN1CCCCC1)O2 (stereo not drawn) .
inactive

Look up and report measured outcome (N140) for the following compound: CCCCCCCCCCCCCCCCCC(=O)OC[C@@H](O)[C@H]1OC[C@H](O)[C@H]1O
inactive

Please report outcome with N140 for item O[C@@H]([C@H](O)[C@H](O)CBr)[C@H](O)CBr .
inactive

State outcome on N140. Entry: N=C(N)n1cccn1
inactive

###

# Run description: Cell Viability - LYMP2-019 (AID 973);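 further: cells exposed to compound for 24 h at 37 °C; nearly all actives have a fitted effect of over 55% in size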
# Assay context: LYMP2-019 lymphoblastoid cell line viability; series mostly up to 92.2 µM
Inconclusive results are not listed. Calls of active or inactive are those of the source. Calls follow the shape of the dose curve; as a rule, active = well fitted cell-killing curve with a large enough effect; inconclusive = small, poorly fitted or top-dose-only effect; inactive = flat fitted curve, though single readings scatter.
Your reply should match one of these outcome classes. label 1 for active, label 0 for inactive

Call for entry CCCCO :
label 0

// return assay outcome for CC1=CC(=O)NS(=O)(=O)O1
label 0

Dear all, I need the recorded test outcome for C=C1C(CCl)(CCl)C2(Cl)C(Cl)C(Cl)C1(Cl)C2(Cl)Cl (centres undefined) , thank you.
label 1

Kindly provide the recorded test outcome for the following molecule: Oc1ccc(/C=C/c2cc(O)cc(O)c2)cc1
label 0

What call does the record list for OCC(O)CO ?
label 0

What outcome does the record of this test show for OC[C@H]1O[C@@H]2O[C@H]3[C@H](O)[C@@H](O)[C@@H](O[C@H]4[C@H](O)[C@@H](O)[C@@H](O[C@H]5[C@H](O)[C@@H](O)[C@@H](O[C@H]6[C@H](O)[C@@H](O)[C@@H](O[C@H]7[C@H](O)[C@@H](O)[C@@H](O[C@H]1[C@H](O)[C@H]2O)O[C@@H]7CO)O[C@@H]6CO)O[C@@H]5CO)O[C@@H]4CO)O[C@@H]3CO ?
label 0

// param item: C[C@H](CCC(=O)O)[C@H]1CC[C@H]2[C@@H]3CC[C@@H]4C[C@H](O)CC[C@]4(C)[C@H]3C[C@H](O)[C@]12C ; yields the recorded call
label 0

Hi, sorry to bother you, what did the test record for O=c1n(CC2CO2)c(=O)n(CC2CO2)c(=O)n1CC1CO1 (centres undefined) ?
label 1

How was OB(O)O classified in this test?
label 0
